- Test system: A2780
- testSummary: MTS Assay, cell proliferation analysis (A2780)
- Type: cell-based
- experimentalContext: Homo sapiens; A2780 cells; 72 hours; 10 Percent FBS
measuredProperty: IC50 (µM)
Unit µM implied. Number only.

molecule	IC50, µM
c1ccc(-n2cc(COCc3ccc(-c4nnc5n4-c4cccnc4Nc4ccccc4-5)cc3)nn2)cc1 [Example 186]	3

Entry O=S(=O)(NCc1ccc(-c2nnc3n2-c2cccnc2Nc2ccccc2-3)cc1)c1ccc(F)cc1 [Example 117] : reported IC50 = ?
19

Entry COc1cccc(NC(=O)NCc2ccc(-c3nnc4n3-c3cccnc3Nc3ccccc3-4)cc2)c1 [Example 123] : reported IC50 = ?
27

----------
- assayedSystem: AKT1 (Homo sapiens (Human), UniProt P31749)
- Sequence (P31749 whole entry): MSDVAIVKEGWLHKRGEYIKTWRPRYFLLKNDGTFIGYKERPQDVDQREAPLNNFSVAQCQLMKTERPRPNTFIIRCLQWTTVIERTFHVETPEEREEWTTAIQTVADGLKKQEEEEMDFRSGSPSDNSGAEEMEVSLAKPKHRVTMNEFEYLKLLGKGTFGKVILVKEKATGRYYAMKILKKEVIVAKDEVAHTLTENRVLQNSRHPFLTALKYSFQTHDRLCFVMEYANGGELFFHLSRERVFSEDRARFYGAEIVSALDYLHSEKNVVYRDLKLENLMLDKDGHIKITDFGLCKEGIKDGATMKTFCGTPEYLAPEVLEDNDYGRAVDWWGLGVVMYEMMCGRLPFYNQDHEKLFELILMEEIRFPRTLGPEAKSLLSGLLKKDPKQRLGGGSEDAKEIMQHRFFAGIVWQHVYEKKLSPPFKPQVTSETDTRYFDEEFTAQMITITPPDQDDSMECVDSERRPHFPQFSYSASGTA
- testSummary: Inactive Akt Alpha Screen Assay
- experimentalContext: non *labeled: Akt Alpha Screen assay; read-out: AKT1 biochemical assay, IC50
Property: log10 of IC50; scope: individual compounds
Scale: log10; quantity: IC50; unit before log: nM

Below: 4 compounds and their reported log10 of IC50.
smilesRecord	measuredProperty	numericValue
O=C(c1ccc(F)cc1)C1CCN(Cc2ccc(-c3nnc4n3-c3cccnc3Nc3ccccc3-4)cc2)CC1	log10 of IC50	3.26
c1ccc2c(c1)Nc1ncccc1-n1c(-c3ccc(CN4CCC(c5nnc(-c6ccncc6)[nH]5)CC4)cc3)nnc1-2	log10 of IC50	2.23
Cc1ccc(C(=O)N2CCN(Cc3ccc(-c4nnc5n4-c4cccnc4Nc4ccccc4-5)cc3)CC2)cc1	log10 of IC50	3.48
c1ccc(-n2cc(COCc3ccc(-c4nnc5n4-c4cccnc4Nc4ccccc4-5)cc3)nn2)cc1	log10 of IC50	2.69

Entry `Cc1cc(C(=O)NC2(c3ccc(-c4nnc5n4-c4cccnc4Nc4ccccc4-5)cc3)CCC2)no1` : reported log10 of IC50 = ?
2.38

Entry `Cc1ccccc1CNC(=O)NC1CCN(Cc2ccc(-c3nnc4n3-c3cccnc3Nc3ccccc3-4)cc2)CC1` : reported log10 of IC50 = ?
3.08

Entry `O=C(Nc1ccc(-c2nnc3n2-c2cccnc2Nc2ccccc2-3)cc1)c1ccc(F)c(F)c1` : reported log10 of IC50 = ?
2.18

Entry `NC1(c2ccc(-c3nnc4n3-c3cccnc3Nc3ccccc3-4)cc2)CC1` : reported log10 of IC50 = ?
2.15

Entry `O=C(NCCc1ccc(-c2nnc3n2-c2cccnc2Nc2ccccc2-3)cc1)Nc1ccccc1` : reported log10 of IC50 = ?
2.08

----------
Property: IC50; scope: individual molecules
- assayedSystem: AKT1 (Homo sapiens (Human))
- testSummary: Inactive Akt Alpha Screen Assay
- experimentalContext: non *labeled: Akt Alpha Screen assay; read-out: AKT1 biochemical assay, IC50
Unit nM implied. Number only.

smilesRecord	assayedSystem	measuredProperty	numericValue
COc1ccc(S(=O)(=O)NCc2ccc(-c3nnc4n3-c3cccnc3Nc3ccccc3-4)cc2)cc1	AKT1 (Homo sapiens (Human))	IC50	800
NCc1ccc(-c2nnc3n2-c2cccnc2Nc2ccc(Br)cc2-3)cc1	AKT1 (Homo sapiens (Human))	IC50	6100
O=C(NCc1ccc(-c2nnc3n2-c2cccnc2Nc2ccccc2-3)cc1)Nc1cccc(F)c1	AKT1 (Homo sapiens (Human))	IC50	1100

Entry `O=S(=O)(NCc1ccc(-c2nnc3n2-c2cccnc2Nc2ccccc2-3)cc1)c1ccccc1` : reported IC50 = ?
140

----------
- assayedSystem: AKT1 (Homo sapiens (Human), UniProt P31749)
- testSummary: Inactive Akt Alpha Screen Assay
- experimentalContext: non *labeled: Akt Alpha Screen assay; read-out: AKT1 biochemical assay, IC50
pIC50: −log10 of the molar value.
Label rule, in plain words: pIC50 of 6 and up is true (1), under 6 is false (0).

Field: example entries. Status: answers known.
compound	assayedSystem	groupLabel
c1ccc(-c2nnc3n2-c2ccccc2Nc2ccccc2-3)cc1	AKT1 (Homo sapiens (Human), UniProt P31749)	false (0)
O=S(=O)(NCCc1ccc(-c2nnc3n2-c2cccnc2Nc2ccccc2-3)cc1)c1ccccc1	AKT1 (Homo sapiens (Human), UniProt P31749)	false (0)
O=S(=O)(NC1(c2ccc(-c3nnc4n3-c3cccnc3Nc3ccccc3-4)cc2)CCC1)c1ccc(F)cc1	AKT1 (Homo sapiens (Human), UniProt P31749)	true (1)
Cc1noc(C2CCCN(Cc3ccc(-c4nnc5n4-c4cccnc4Nc4ccccc4-5)cc3)C2)n1 (stereo not shown)	AKT1 (Homo sapiens (Human), UniProt P31749)	true (1)
Cc1cc(C(=O)Nc2ccc(-c3nnc4n3-c3cccnc3Nc3ccccc3-4)cc2)no1	AKT1 (Homo sapiens (Human), UniProt P31749)	true (1)
c1c[nH]c(-c2nnc3n2-c2cccnc2Nc2ccccc2-3)c1	AKT1 (Homo sapiens (Human), UniProt P31749)	false (0)
CC(=O)NC1CCN(Cc2ccc(-c3nnc4n3-c3cccnc3Nc3ccccc3-4)cc2)C1 (stereo not shown)	AKT1 (Homo sapiens (Human), UniProt P31749)	false (0)
O=C(Nc1ccc(-c2nnc3n2-c2cccnc2Nc2ccccc2-3)cc1)c1cccc2ccccc12	AKT1 (Homo sapiens (Human), UniProt P31749)	true (1)

Textbook exercise: given the entry `c1ccc(-c2nnc(C3CCN(Cc4ccc(-c5nnc6n5-c5ccccc5Nc5ccccc5-6)cc4)CC3)[nH]2)nc1` , state whether its pIC50 is greater than or equal to 6.
true (1)

Textbook exercise: given the entry `COc1cccc(S(=O)(=O)NCc2ccc(-c3nnc4n3-c3cccnc3Nc3ccccc3-4)cc2)c1` , state whether its pIC50 is greater than or equal to 6.
true (1)

Textbook exercise: given the entry `O=S(=O)(NC1CCN(Cc2ccc(-c3nnc4n3-c3cccnc3Nc3ccccc3-4)cc2)CC1)C1CC1` , state whether its pIC50 is greater than or equal to 6.
false (0)

Textbook exercise: given the entry `O=C(Nc1cccc(C(F)(F)F)c1)NC1CCN(Cc2ccc(-c3nnc4n3-c3cccnc3Nc3ccccc3-4)cc2)CC1` , state whether its pIC50 is greater than or equal to 6.
true (1)

----------
- assayedSystem: UniProt P31749
- testSummary: Inactive Akt Alpha Screen Assay
- experimentalContext: non *labeled: Akt Alpha Screen assay; read-out: AKT1 biochemical assay, IC50
Property: IC50; scope: individual compounds
The answer should read as a number with its unit following.

Below: 4 compounds and their reported IC50.
smilesRecord	IC50
COc1cccc(C(=O)N2CCN(Cc3ccc(-c4nnc5n4-c4cccnc4Nc4ccccc4-5)cc3)CC2)c1	2200 nM
CC(C)(N)c1ccc(-c2nnc3n2-c2cccnc2Nc2ccccc2-3)cc1	340 nM
O=C(c1ccc(-c2nnc3n2-c2cccnc2Nc2ccccc2-3)cc1)N1CCC(n2c(=O)[nH]c3ccccc32)CC1	800 nM
O=C(Nc1ccc(-c2nnc3n2-c2cccnc2Nc2ccccc2-3)cc1)c1ccco1	130 nM

Entry `Cc1cccc(NC(=O)NCc2ccc(-c3nnc4n3-c3cccnc3Nc3ccccc3-4)cc2)c1` : reported IC50 = ?
480 nM

Entry `O=C(NCc1ccc(-c2nnc3n2-c2cccnc2Nc2ccccc2-3)cc1)c1ccc(F)cc1` : reported IC50 = ?
300 nM

Entry `Cc1ccc(C(=O)Nc2ccc(-c3nnc4n3-c3cccnc3Nc3ccccc3-4)cc2)cc1` : reported IC50 = ?
100 nM

Entry `O=S(=O)(NCc1ccc(-c2nnc3n2-c2cccnc2Nc2ccccc2-3)cc1)c1cccc(F)c1` : reported IC50 = ?
400 nM

----------
- assayedSystem: AKT1 (Homo sapiens (Human), UniProt P31749)
- testSummary: Inactive Akt Alpha Screen Assay
- experimentalContext: non *labeled: Akt Alpha Screen assay; read-out: AKT1 biochemical assay, IC50
Property: IC50; scope: individual compounds

compound	result
NC1(c2ccc(-c3nnc4n3-c3cnccc3Nc3ccccc3-4)cc2)CCC1	5 µM
CN(C)c1ccc(C(=O)Nc2ccc(-c3nnc4n3-c3cccnc3Nc3ccccc3-4)cc2)cc1	1.9 µM
O=C(NCc1ccc(-c2nnc3n2-c2cccnc2Nc2ccccc2-3)cc1)c1cccnc1	0.2 µM
O=S(=O)(NCc1ccc(-c2nnc3n2-c2cccnc2Nc2ccccc2-3)cc1)c1ccc(F)cc1	0.12 µM
COC(=O)c1sccc1S(=O)(=O)NC1CCN(Cc2ccc(-c3nnc4n3-c3cccnc3Nc3ccccc3-4)cc2)CC1	0.79 µM

Entry `CC(C)(C)CC(=O)Nc1ccc(-c2nnc3n2-c2cccnc2Nc2ccccc2-3)cc1` : reported IC50 = ?
0.34 µM

Entry `N#Cc1ccc(C(=O)N2CCN(Cc3ccc(-c4nnc5n4-c4cccnc4Nc4ccccc4-5)cc3)CC2)cc1` : reported IC50 = ?
0.99 µM

Entry `O=S(=O)(NC1CCN(Cc2ccc(-c3nnc4n3-c3cccnc3Nc3ccccc3-4)cc2)CC1)c1ccc2c(c1)OCCO2` : reported IC50 = ?
2 µM

----------
- Tested on: IGROV-1
- testSummary: MTS Assay, cell proliferation analysis (IGROV-1)
- Format: cell-based
- experimentalContext: Homo sapiens; IGROV-1 cells; 72 hours; 10 Percent FBS
measuredProperty: IC50 (µM)
Unit µM implied. Number only.

Below: 2 molecules and their reported IC50.
smilesRecord	measuredProperty	numericValue
c1ccc(-c2nnc(C3CCN(Cc4ccc(-c5nnc6n5-c5cccnc5Nc5ccccc5-6)cc4)CC3)[nH]2)nc1	IC50	10
NC1(c2ccc(-c3nnc4n3-c3cccnc3Nc3ccccc3-4)cc2)CCC1	IC50	6

Entry `Cc1ccc(C(=O)Nc2ccc(-c3nnc4n3-c3cccnc3Nc3ccccc3-4)cc2)cc1` : reported IC50 = ?
28
